target_or_test_system: T1, Ac-VQIINK-NH2
T1 peptide: Ac-VQIINK-NH2
assay_info: cell-based or functional assay
I'd appreciate it if you marked entries 1 when IC50 (µM), VQIINK Inhibition (ThT) is lower than 3 µM and -1 when it is not.

binder: HRIRIRW
category_label: -1
--
binder: WRIWIR
category_label: -1
--
binder: IRWRIRW
category_label: -1
--
binder: WRIQIRW
category_label: 1
--
binder: WRIRIRF
category_label: -1
--
binder: WRIRLRYW
category_label: -1
--
binder: IWIRLW
category_label: 1

All values here come from patent US20230137562A1.
